Overview of recorded self-cleavage for various variants
B1: HDV Ribozyme (parent)
chain: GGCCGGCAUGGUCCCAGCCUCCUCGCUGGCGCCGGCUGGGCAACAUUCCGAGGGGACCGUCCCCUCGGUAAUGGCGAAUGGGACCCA

Variants of: B1
measurement protocol: self-cleavage, relative activity (ratio to wild type); higher = more cleavage; co-transcriptional

Use the examples below as a reference point.
* C44U C75A | 0.108
* G10A A87C | 0.764

So what's the measured self-cleavage for this one? C44U C85U
0.954

Each recorded value in this set is attributed to the RNAGym collection of RNA variant scans (doi:10.7554/elife.80360).
